- assay_method_text: in vitro
- study_conditions: BALB/c, mouse, normal (non-infected) primary murine peritoneal macrophages, Normal Macrophage Survival Rate
Where a SMILES comes first, the peptide text is derived from it. [ ]: non-standard residue; d: D form. Api = NC1(C(=O)O)CCNCC1; Aib = CC(C)(N)C(=O)O
Examples of compounds with documented viability at 1 h, 0.1 µM follow.
Your answer should be a number followed by the unit of measure.

# annotated cases, reported viability at 1 h, 0.1 µM shown
{"columns": ["compound", "viability at 1 h, 0.1 µM"],
 "data": [
  ["CC(C)(NC(=O)C(C)(C)NC(=O)[C@H](CCCCN)NC(=O)[C@H](CCCCN)NC(=O)C(C)(C)NC(=O)C(C)(C)NC(=O)[C@H](CCCCN)NC(=O)C(C)(C)NC(=O)C(C)(C)NC(=O)[C@H](CCCCN)NC(=O)[C@H](CCCCN)NC(=O)C(C)(C)NC(=O)C(C)(C)NC(=O)[C@@H](N)CCCCN)C(N)=O [Ai-14] (H-K[Aib][Aib]KK[Aib][Aib]K[Aib][Aib]KK[Aib][Aib]-NH2)", "91%"],
  ["CC(=O)NC(C)(C)C(=O)NC(C)(C)C(=O)NC1(C(=O)N[C@@H](CCCCN)C(=O)NC(C)(C)C(=O)NC(C)(C)C(=O)NC2(C(=O)N[C@@H](CCCCN)C(=O)NC(C)(C)C(=O)NC(C)(C)C(N)=O)CCNCC2)CCNCC1 [Pi-10-ac, Ac—AibAibApiLysAibAibApiLysAibAib—NH2] (Ac-[Aib][Aib][Api]K[Aib][Aib][Api]K[Aib][Aib]-NH2)", "92%"],
  ["CC(C)(N)C(=O)NC(C)(C)C(=O)NC1(C(=O)N[C@@H](CCCCN)C(=O)NC(C)(C)C(=O)NC(C)(C)C(=O)NC2(C(=O)N[C@@H](CCCCN)C(=O)NC(C)(C)C(=O)NC(C)(C)C(N)=O)CCNCC2)CCNCC1 [Pi-10, H—AibAibApiLysAibAibApiLysAibAib—NH2] (H-[Aib][Aib][Api]K[Aib][Aib][Api]K[Aib][Aib]-NH2)", "95%"],
  ["CC(C)(NC(=O)C(C)(C)NC(=O)[C@H](CCCCN)NC(=O)[C@H](CCCCN)NC(=O)C(C)(C)NC(=O)C(C)(C)NC(=O)[C@H](CCCCN)NC(=O)C(C)(C)NC(=O)C(C)(C)NC(=O)[C@H](CCCCN)NC(=O)[C@@H](N)CCCCN)C(N)=O [Ai-11, H—LysLysAibAibLysAibAibLysLysAibAib—NH2] (H-KK[Aib][Aib]K[Aib][Aib]KK[Aib][Aib]-NH2)", "88%"]
]}

// moving on: another record for viability at 1 h, 0.1 µM
Would you mind telling me what viability at 1 h, 0.1 µM value was observed for CC(=O)N[C@@H](CCCCN)C(=O)N[C@@H](CCCCN)C(=O)NC(C)(C)C(=O)NC(C)(C)C(=O)N[C@@H](CCCCN)C(=O)NC(C)(C)C(=O)NC(C)(C)C(=O)N[C@@H](CCCCN)C(=O)N[C@@H](CCCCN)C(=O)NC(C)(C)C(=O)NC(C)(C)C(N)=O [Ai-11-ac, Ac—LysLysAibAibLysAibAibLysLysAibAib—NH2] (Ac-KK[Aib][Aib]K[Aib][Aib]KK[Aib][Aib]-NH2) ?
92%

----------
- Tested on: Staphylococcus aureus, ATCC 25723
- study_conditions: MIC after 4 h; median of 3-7 tests; corrected for actual peptide concentration
Where a SMILES comes first, the peptide text is derived from it. [ ]: non-standard residue; d: D form. Ac6c = NC1(C(=O)O)CCCCC1; Aib = CC(C)(N)C(=O)O
outcome_measure: Peptide minimum inhibitory concentration, S. aureus (µM)
Form entry: value (µM) — number only.

{"columns": ["compound", "measured_on", "unit_annotation", "observed_measurement"],
 "data": [
  ["NCCCC[C@H](NC(=O)[C@H](CCCCN)NC(=O)C1(NC(=O)C2(NC(=O)[C@H](CCCCN)NC(=O)C3(NC(=O)C4(NC(=O)[C@H](CCCCN)NC(=O)[C@@H](N)CCCCN)CCCCC4)CCCCC3)CCCCC2)CCCCC1)C(=O)NC1(C(=O)NC2(C(N)=O)CCCCC2)CCCCC1 [Ch-11, H—LysLysChChLysChChLysLysChCh—NH2] (H-KK[Ac6c][Ac6c]K[Ac6c][Ac6c]KK[Ac6c][Ac6c]-NH2)", "Staphylococcus aureus, ATCC 25723", "µM", 2.6],
  ["CC(=O)N[C@@H](CCCCN)C(=O)N[C@@H](CCCCN)C(=O)NC(C)(C)C(=O)NC(C)(C)C(=O)N[C@@H](CCCCN)C(=O)NC(C)(C)C(=O)NC(C)(C)C(=O)N[C@@H](CCCCN)C(=O)N[C@@H](CCCCN)C(=O)NC(C)(C)C(=O)NC(C)(C)C(N)=O [Ai-11-ac, Ac—LysLysAibAibLysAibAibLysLysAibAib—NH2] (Ac-KK[Aib][Aib]K[Aib][Aib]KK[Aib][Aib]-NH2)", "Staphylococcus aureus, ATCC 25723", "µM", 212]
]}

Would you kindly look at the next entry?
Dear colleague, I am looking for the recorded Peptide minimum inhibitory concentration, S. aureus of the following compound: NCCCC[C@H](NC(=O)[C@H](CCCCN)NC(=O)C1(NC(=O)C2(NC(=O)[C@H](CCCCN)NC(=O)C3(NC(=O)C4(NC(=O)[C@H](CCCCN)NC(=O)[C@@H](N)CCCCN)CCCCC4)CCCCC3)CCCCC2)CCCCC1)C(=O)NC1(C(N)=O)CCCCC1 [Ch-10, H—LysLysChChLysChChLysLysCh—NH2] (H-KK[Ac6c][Ac6c]K[Ac6c][Ac6c]KK[Ac6c]-NH2)
2.8

----------
In this section, each of the compounds is paired with its reported viability at 1 h, 50 µM.
- assay_method_text: in vitro
- study_conditions: BALB/c, mouse, normal (non-infected) primary murine peritoneal macrophages, Normal Macrophage Survival Rate
Where a SMILES comes first, the peptide text is derived from it. [ ]: non-standard residue; d: D form. Api = NC1(C(=O)O)CCNCC1; Aib = CC(C)(N)C(=O)O
Numbers only here, please. The scale is %.

Study these solved cases before continuing.
{"columns": ["compound", "outcome_measure", "unit_annotation", "observed_measurement"],
 "data": [
  ["CC(C)(NC(=O)C(C)(C)NC(=O)[C@H](CCCCN)NC(=O)[C@H](CCCCN)NC(=O)C(C)(C)NC(=O)C(C)(C)NC(=O)[C@H](CCCCN)NC(=O)C(C)(C)NC(=O)C(C)(C)NC(=O)[C@H](CCCCN)NC(=O)[C@H](CCCCN)NC(=O)C(C)(C)NC(=O)C(C)(C)NC(=O)[C@@H](N)CCCCN)C(N)=O [Ai-14] (H-K[Aib][Aib]KK[Aib][Aib]K[Aib][Aib]KK[Aib][Aib]-NH2)", "viability at 1 h, 50 µM", "%", 57],
  ["CC(=O)N[C@@H](CCCCN)C(=O)N[C@@H](CCCCN)C(=O)NC(C)(C)C(=O)NC(C)(C)C(=O)N[C@@H](CCCCN)C(=O)NC(C)(C)C(=O)NC(C)(C)C(=O)N[C@@H](CCCCN)C(=O)N[C@@H](CCCCN)C(=O)NC(C)(C)C(=O)NC(C)(C)C(N)=O [Ai-11-ac, Ac—LysLysAibAibLysAibAibLysLysAibAib—NH2] (Ac-KK[Aib][Aib]K[Aib][Aib]KK[Aib][Aib]-NH2)", "viability at 1 h, 50 µM", "%", 58.5],
  ["CC(C)(NC(=O)C(C)(C)NC(=O)[C@H](CCCCN)NC(=O)[C@H](CCCCN)NC(=O)C(C)(C)NC(=O)C(C)(C)NC(=O)[C@H](CCCCN)NC(=O)C(C)(C)NC(=O)C(C)(C)NC(=O)[C@H](CCCCN)NC(=O)[C@@H](N)CCCCN)C(N)=O [Ai-11, H—LysLysAibAibLysAibAibLysLysAibAib—NH2] (H-KK[Aib][Aib]K[Aib][Aib]KK[Aib][Aib]-NH2)", "viability at 1 h, 50 µM", "%", 56.6]
]}

Kindly consider the entry below.
Bench note: what viability at 1 h, 50 µM did CC(=O)NC(C)(C)C(=O)NC(C)(C)C(=O)NC1(C(=O)N[C@@H](CCCCN)C(=O)NC(C)(C)C(=O)NC(C)(C)C(=O)NC2(C(=O)N[C@@H](CCCCN)C(=O)NC(C)(C)C(=O)NC(C)(C)C(N)=O)CCNCC2)CCNCC1 [Pi-10-ac, Ac—AibAibApiLysAibAibApiLysAibAib—NH2] (Ac-[Aib][Aib][Api]K[Aib][Aib][Api]K[Aib][Aib]-NH2) show?
49

Values were extracted from patent US6566334B1.
